Record form. Attribute: pEC50. Fill in for each entry.
# SYSTEM: FPR1 (Homo sapiens, UniProt P21462)
# Sequence (P21462 whole entry): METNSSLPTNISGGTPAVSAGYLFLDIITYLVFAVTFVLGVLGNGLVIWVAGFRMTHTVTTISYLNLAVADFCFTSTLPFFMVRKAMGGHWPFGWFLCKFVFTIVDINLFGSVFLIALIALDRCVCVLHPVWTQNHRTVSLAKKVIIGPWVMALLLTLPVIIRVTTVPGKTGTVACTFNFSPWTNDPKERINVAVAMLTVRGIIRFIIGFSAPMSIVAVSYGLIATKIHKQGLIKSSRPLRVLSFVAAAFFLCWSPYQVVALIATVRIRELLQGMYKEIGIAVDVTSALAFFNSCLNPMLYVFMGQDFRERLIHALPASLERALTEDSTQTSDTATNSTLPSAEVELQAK
# PROTOCOL: Compound-induced calcium activity (FLIPR Tetra) in CHO-Gα16 cells stably expressing FPR1
# MEASUREMENT_CONTEXT: CHO-Gα16 cells stably expressing FPR1; calcium activity; tested 0.61 to 10,000 nM; read-out: FPR1 Ga16-CHO EC50
Numbers only, as −log10 of the molar value.

Take a look at these entries with their results.
COMPOUND: CC(C)CC(CNC(=O)Nc1ccc(Br)cc1F)C(=O)O (stereo not drawn) [Compound 10]
pEC50: 6.95
//
COMPOUND: CC(C)CC(CNC(=O)Nc1ccc(Br)cc1)C(=O)N(C)CC(=O)O (stereo not drawn) [Compound 37]
pEC50: 7.26
//
COMPOUND: COc1ccc(NC(=O)NCC(CC(C)C)C(=O)O)cc1 (stereo not drawn) [Compound 11]
pEC50: 5.92
//
COMPOUND: CC(C)CC(CCNC(=O)Nc1ccc(Br)cc1)S(=O)(=O)O (stereo not drawn) [Compound 21]
pEC50: 8.15

Quick one: give me pEC50 for each item below, same order please.
1. CC(C)CC(CNC(=O)Nc1ccc(Br)cc1)C(=O)O (stereo not drawn) [Compound 7]
2. CC(C)CC(CNC(=O)Nc1ccc(Br)cc1)C(=O)N(C)CC(=O)OC(C)(C)C (stereo not drawn) [Compound 32]
3. CC(C)C(CNC(=O)Nc1ccc(Br)cc1)C(=O)O (stereo not drawn) [Compound 13]

Response given:
[7.46, 5.60, 5.66]
